The following compounds are listed with their measured Fbg values.
species on record: Rattus norvegicus; assay: Open TG-GATES - Regimen: Daily Repeat; assay type: toxicity, organism-based, Sprague-Dawley; parameters: regimen Daily Repeat, gender Male, age 6 weeks; details: in vivo, po, 0 mg/kg, […], tissue Blood, route gavage, dose level Control, time 28 day
Give the value in mg/dL but do not write mg/dL after it.

Worked examples follow.
COMPOUND	MEASURED_RESULT
COC1=CC(=O)C[C@@H](C)[C@]12Oc1c(Cl)c(OC)cc(OC)c1C2=O [GRISEOFULVIN]	220
CN(C)CCN(Cc1cccs1)c1ccccn1	288.2
CCCNC(=O)NS(=O)(=O)c1ccc(Cl)cc1 [CHLORPROPAMIDE]	259.6
CN(C)CCCN1c2ccccc2CCc2ccccc21 [IMIPRAMINE]	294.2
NC(N)=Nc1nc(CSCCC(N)=NS(N)(=O)=O)cs1 [FAMOTIDINE]	233.6
COc1ccc2[nH]c([S+]([O-])Cc3ncc(C)c(OC)c3C)nc2c1 (stereo not drawn) [OMEPRAZOLE]	228.8
CCOc1ccc(NC(=O)CC(C)O)cc1 (stereo not drawn) [BUCETIN]	296.4
CN1C(=O)CN=C(c2ccccc2)c2cc(Cl)ccc21 [DIAZEPAM]	227.2

Lookup: Requested read-out: Fbg. Entry: NNC(=O)c1ccncc1 [ISONIAZID]
Found: 227.4

Lookup: Requested read-out: Fbg. Entry: O=C(CCCN1CCC(O)(c2ccc(Cl)cc2)CC1)c1ccc(F)cc1 [HALOPERIDOL]
Found: 235.8

Lookup: Requested read-out: Fbg. Entry: CC(C)OC(=O)C(C)(C)Oc1ccc(C(=O)c2ccc(Cl)cc2)cc1 [FENOFIBRATE]
Found: 270.6

Lookup: Requested read-out: Fbg. Entry: CC1=C(/C=C/C(C)=C/C=C/C(C)=C/CO)C(C)(C)CCC1 [RETINOL]
Found: 354.8

Lookup: Requested read-out: Fbg. Entry: CCOC(=O)CCC(=O)O[C@H]1[C@H](O[C@@H]2[C@@H](C)[C@H](O[C@H]3C[C@@](C)(OC)[C@@H](O)[C@H](C)O3)[C@@H](C)C(=O)O[C@H](CC)[C@@](C)(O)[C@H](O)[C@@H](C)C(=O)[C@H](C)C[C@@]2(C)O)O[C@H](C)C[C@@H]1N(C)C [ERYTHROMYCIN ETHYLSUCCINATE]
Found: 317.2

###

organism: Rattus norvegicus; test: Open TG-GATES - Regimen: Single; type: toxicity, organism-based, Sprague-Dawley; set-up: regimen Single, gender Male, age 6 weeks; details: in vivo, po, 0 mg/kg, 6 h, tissue Kidney, route gavage, dose level Control
The following molecules are listed with their measured KIDNEY_R values.
Give the value in g but do not write g after it.

Worked examples follow.
MOLECULE	UNIT_OF_MEASUREMENT	KIDNEY_R
CN1C(=O)CN=C(c2ccccc2)c2cc(Cl)ccc21	g	1
COC1=CC(=O)C[C@@H](C)[C@]12Oc1c(Cl)c(OC)cc(OC)c1C2=O	g	1
COc1cc2c(c(OC)c1OC)-c1ccc(OC)c(=O)cc1[C@@H](NC(C)=O)CC2	g	1

Lookup: Requested read-out: KIDNEY_R. Entry: NNC(=O)c1ccncc1
Found: 0.9

Lookup: Requested read-out: KIDNEY_R. Entry: CCOC(=O)CCC(=O)O[C@H]1[C@H](O[C@@H]2[C@@H](C)[C@H](O[C@H]3C[C@@](C)(OC)[C@@H](O)[C@H](C)O3)[C@@H](C)C(=O)O[C@H](CC)[C@@](C)(O)[C@H](O)[C@@H](C)C(=O)[C@H](C)C[C@@]2(C)O)O[C@H](C)C[C@@H]1N(C)C [ERYTHROMYCIN ETHYLSUCCINATE]
Found: 0.9

Lookup: Requested read-out: KIDNEY_R. Entry: CN(C)CCN(Cc1cccs1)c1ccccn1
Found: 0.9

Lookup: Requested read-out: KIDNEY_R. Entry: CC/C(=C(\c1ccccc1)c1ccc(OCCN(C)C)cc1)c1ccccc1
Found: 0.8

Lookup: Requested read-out: KIDNEY_R. Entry: COc1ccc2[nH]c([S+]([O-])Cc3ncc(C)c(OC)c3C)nc2c1 (configuration not stated)
Found: 1

Lookup: Requested read-out: KIDNEY_R. Entry: Cc1ccc(C)c(OCCCC(C)(C)C(=O)O)c1
Found: 0.9

Lookup: Requested read-out: KIDNEY_R. Entry: CN(C)CCCN1c2ccccc2CCc2ccccc21
Found: 0.9

Lookup: Requested read-out: KIDNEY_R. Entry: O=C(CCCN1CCC(O)(c2ccc(Cl)cc2)CC1)c1ccc(F)cc1
Found: 1

Lookup: Requested read-out: KIDNEY_R. Entry: CC(C)OC(=O)C(C)(C)Oc1ccc(C(=O)c2ccc(Cl)cc2)cc1 [FENOFIBRATE]
Found: 0.8
